- RUN_DESCRIPTION: Metabolic stability in mouse liver microsomes assessed as half life
- Assay type: ADME, Microsome
RESULT_TYPE: half-life (min)
Write it as a number; the unit min goes unstated.

**Q:** Please give the documented half-life of `Cc1cccc(C)c1NC(=O)c1sc(Nc2ccc(F)c(Cl)c2)nc1C`
**A:** 44.7

* * *

- RUN_DESCRIPTION: Tmax in C57BL/6N mouse at 1 mg/kg, iv measured upto 24 hrs by LC-MS analysis
- Format: ADME, organism-based
- MEASUREMENT_SETUP: in vivo
RESULT_TYPE: Tmax (min)
Write it as a number; the unit min goes unstated.

**Q:** Please give the documented Tmax of `Cc1cccc(C)c1NC(=O)c1sc(Nc2ccc(F)c(Cl)c2)nc1C`
**A:** 6

// data source = ChEMBL document CHEMBL5543102
